- Measurement target: P2Y purinoceptor 2 (Mus musculus)
- Protocol text: Antagonist activity at mouse P2Y2 receptor expressed in NG108-15 hybrid cells assessed as inhibition of 3 uM UTP-induced intracellular calcium release preincubated 30 mins before UTP challenge by fluorescence assay
- Type: functional, cell-based
Measure: IC50 (µM)
Respond with the bare value in µM.

IN: # value lookup — system P2Y purinoceptor 2 (Mus musculus), readout IC50, item `O=c1ccn(CCCCOP(=O)(O)OP(=O)(O)OP(=O)(O)O)c(=O)[nH]1`
OUT: 596

###

Listed below: inhibition values for each entry.
- Measurement target: P2Y purinoceptor 2 (Mus musculus) (UniProt P35383)
- Sequence (P35383 whole entry): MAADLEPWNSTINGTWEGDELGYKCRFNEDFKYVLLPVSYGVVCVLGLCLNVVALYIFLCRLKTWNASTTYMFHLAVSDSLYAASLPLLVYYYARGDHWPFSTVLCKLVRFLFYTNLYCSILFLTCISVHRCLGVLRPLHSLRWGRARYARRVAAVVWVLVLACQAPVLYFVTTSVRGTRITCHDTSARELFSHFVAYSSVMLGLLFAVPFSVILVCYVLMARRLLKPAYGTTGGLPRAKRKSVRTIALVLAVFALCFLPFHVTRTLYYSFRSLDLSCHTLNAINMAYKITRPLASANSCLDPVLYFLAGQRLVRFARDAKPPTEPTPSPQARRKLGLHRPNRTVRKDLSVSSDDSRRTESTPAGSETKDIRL
- Protocol text: Antagonist activity at mouse P2Y2 receptor expressed in NG108-15 hybrid cells assessed as inhibition of 1 uM UTP-induced intracellular calcium release preincubated 30 mins before UTP challenge by fluorescence assay
- Format: functional, cell-based
Provide the reading as a plain figure in %.

Example entries begin here.
Smiles notation | Measurement target | Measure | Value reported
O=c1ccn(CCCCCOP(=O)(O)OP(=O)(O)OP(=O)(O)O)c(=O)[nH]1 | P2Y purinoceptor 2 (Mus musculus) (UniProt P35383) | inhibition | 50
O=c1ccn(CCCCOP(=O)(O)O)c(=O)[nH]1 | P2Y purinoceptor 2 (Mus musculus) (UniProt P35383) | inhibition | 60
O=c1ccn(COCCOP(=O)(O)OP(=O)(O)OP(=O)(O)O)c(=O)[nH]1 | P2Y purinoceptor 2 (Mus musculus) (UniProt P35383) | inhibition | 16
O=c1ccn(CCCP(=O)(O)OP(=O)(O)OP(=O)(O)O)c(=O)[nH]1 | P2Y purinoceptor 2 (Mus musculus) (UniProt P35383) | inhibition | 52
O=c1ccn(CCCCCP(=O)(O)OP(=O)(O)O)c(=O)[nH]1 | P2Y purinoceptor 2 (Mus musculus) (UniProt P35383) | inhibition | 55
O=c1ccn(COCCOP(=O)(O)O)c(=O)[nH]1 | P2Y purinoceptor 2 (Mus musculus) (UniProt P35383) | inhibition | 16
O=c1ccn(CCOP(=O)(O)O)c(=O)[nH]1 | P2Y purinoceptor 2 (Mus musculus) (UniProt P35383) | inhibition | 22

Attention now turns to another entry.
IN: Request the reported inhibition associated with `O=c1ccn(CCOP(=O)(O)OP(=O)(O)OP(=O)(O)O)c(=O)[nH]1`
OUT: 60

###

- Measurement target: P2Y purinoceptor 2 (Mus musculus)
- Protocol text: Antagonist activity at mouse P2Y2 receptor expressed in NG108-15 hybrid cells assessed as inhibition of 1 uM UTP-induced intracellular calcium release preincubated 30 mins before UTP challenge by fluorescence assay
- Format: functional, cell-based
- Run conditions: ng108-15
pIC50: −log10 of the molar value.
Listed next: entries and their corresponding pIC50.

Smiles notation | Measure | Value reported
O=c1ccn(CCCCOP(=O)(O)O)c(=O)[nH]1 | pIC50 | ≥ 3.30

IN: GET /values?readout=pIC50&item= `O=c1ccn(CCOP(=O)(O)OP(=O)(O)OP(=O)(O)O)c(=O)[nH]1`
OUT: ≥ 3.30

###

- Measurement target: P2Y purinoceptor 2 (Mus musculus, UniProt P35383)
- Sequence (P35383 whole entry): as above
- Protocol text: Antagonist activity at mouse P2Y2 receptor expressed in NG108-15 hybrid cells assessed as inhibition of 1 uM UTP-induced intracellular calcium release preincubated 30 mins before UTP challenge by fluorescence assay
- Assay type: functional, cell-based
Measure: pIC50
pIC50 (log units): -log10 of the concentration in mol/L.

# annotated cases, reported pIC50 shown
Compound | Measure | Value reported
O=c1ccn([C@@H]2O[C@H](COP(=O)(O)OP(=O)(O)OP(=O)(O)O)[C@@H](O)[C@H]2O)c(=O)[nH]1 [URIDINE TRIPHOSPHATE] | pIC50 | 5.82
O=c1ccn(CCCCCOP(=O)(O)O)c(=O)[nH]1 | pIC50 | 3.57
O=c1ccn(CCCP(=O)(O)OP(=O)(O)OP(=O)(O)O)c(=O)[nH]1 | pIC50 | 3.30
O=c1ccn(CCCCCP(=O)(O)OP(=O)(O)OP(=O)(O)O)c(=O)[nH]1 | pIC50 | 3.78

IN: I would be grateful if you could share the reported pIC50 for `O=c1ccn(COCCCOP(=O)(O)O)c(=O)[nH]1` .
OUT: 3.47

IN: Looking for the measured pIC50 of `O=c1ccn(CCCCCP(=O)(O)OP(=O)(O)O)c(=O)[nH]1` , can you help?
OUT: 3.30

IN: Requested field: pIC50. Item: `O=c1ccn(CCCCP(=O)(O)OP(=O)(O)OP(=O)(O)O)c(=O)[nH]1`
OUT: 4.04

IN: Given the entry `O=c1ccn(CCCCCOP(=O)(O)OP(=O)(O)OP(=O)(O)O)c(=O)[nH]1` , report its measured pIC50.
OUT: 3.30

IN: Entry under review: `O=c1ccn(COCCCOP(=O)(O)OP(=O)(O)OP(=O)(O)O)c(=O)[nH]1` . Reported pIC50?
OUT: 3.58
